ASSAY DETAILS: Acute (single administration) toxicity test in mice
Type: in vivo, ICR mice
CONDITION CONTEXT: in vivo, oral, Mouse M, medium 5% gum arabic
Experimental: Next, the results of the acute toxicity test of 2-methyl-3-[(2E,6E,10E)-3,7,11,15-tetramethyl-2,6,10,14-hexadecatetraenyl]naphthoquinone (generic name: vitamin K2), which is a typical example of the compound of the present invention, will be given. An acute toxicity test was conducted as follows: […]
MEASUREMENT KIND: LD50

Briefly, LD50 measured for CC(C)=CCC/C(C)=C/CC/C(C)=C/CC/C(C)=C/CC1=C(C)C(=O)c2ccccc2C1=O [vitamin K2] : > 5000 mg/kg
